Source listed as the Human Domainome abundance scans (Beltran et al. 2025).

B1: GA-binding protein alpha chain, residues 172 to 250; numbered along this chain, Q06546 (parent)
chain: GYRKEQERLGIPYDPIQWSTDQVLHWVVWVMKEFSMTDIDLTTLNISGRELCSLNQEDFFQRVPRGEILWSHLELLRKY

# Variants of: B1
# ASSAY_TEXT: abundance fitness (aPCA) (normalised: wild type 0, dead -1); higher = more abundant; growth selection in yeast, the domain comes from the species named
# TEST_PARAMETERS: Homo sapiens
Entries and their abundance fitness values follow.

- SEQUENCE_CODE: "GYRKEQERLGIPYDPIQWSTDQVLHWVVWVMKEFSMTDIDLTTLNISGRHLCSLNQEDFFQRVPRGEILWSHLELLRKY"
  abundance fitness: -0.2
- SEQUENCE_CODE: "GYRKEQERLGIPYMPIQWSTDQVLHWVVWVMKEFSMTDIDLTTLNISGRELCSLNQEDFFQRVPRGEILWSHLELLRKY"
  abundance fitness: -0.784
- SEQUENCE_CODE: "GYRKEQERLGIPYDPIQWSTDQVLHWVVWVMKEFAMTDIDLTTLNISGRELCSLNQEDFFQRVPRGEILWSHLELLRKY"
  abundance fitness: -0.086
- SEQUENCE_CODE: "GYRKEQERLGIPYDPIQWSTDQVLHTVVWVMKEFSMTDIDLTTLNISGRELCSLNQEDFFQRVPRGEILWSHLELLRKY"
  abundance fitness: -1.03
- SEQUENCE_CODE: "GYRKEQERLGIPYDPIQYSTDQVLHWVVWVMKEFSMTDIDLTTLNISGRELCSLNQEDFFQRVPRGEILWSHLELLRKY"
  abundance fitness: -0.669
- SEQUENCE_CODE: "GYRKEQERLGIPYDPIQWSTDQVLYWVVWVMKEFSMTDIDLTTLNISGRELCSLNQEDFFQRVPRGEILWSHLELLRKY"
  abundance fitness: -0.002
- SEQUENCE_CODE: "GYRKEQERLGIPYDPIQWSTDQVLHWVVWVMKEFSMTDIDLTTLNISRRELCSLNQEDFFQRVPRGEILWSHLELLRKY"
  abundance fitness: -0.944
- SEQUENCE_CODE: "GYRKEQERLGIPYDPIQWSTDQVLHWVVWVMKEFSMTDIDLTTLNISGRELCSLNQEDFFQRVPRGEILWSHLELLRKL"
  abundance fitness: -0.032
- SEQUENCE_CODE: "GYRKEQERLGIPYDPIFWSTDQVLHWVVWVMKEFSMTDIDLTTLNISGRELCSLNQEDFFQRVPRGEILWSHLELLRKY"
  abundance fitness: -0.28
- SEQUENCE_CODE: "GYRKEQERLGIPYDPIQWSTDQVLHWVVWVMKEFSMTEIDLTTLNISGRELCSLNQEDFFQRVPRGEILWSHLELLRKY"
  abundance fitness: 0.03
- SEQUENCE_CODE: "GYRKEQERLGIPYDPIQWSTDQVLHWVVWVKKEFSMTDIDLTTLNISGRELCSLNQEDFFQRVPRGEILWSHLELLRKY"
  abundance fitness: -0.089
- SEQUENCE_CODE: "GYRKEQERLGIPYDPIQWSTDQVLHWVVWVMKEFSMTDIDLTTPNISGRELCSLNQEDFFQRVPRGEILWSHLELLRKY"
  abundance fitness: -0.865
- SEQUENCE_CODE: "GYRKEQERLGIPYDPIQWSTDQVLHWVVWVMKEFSMTDIDLTTLNISGRELCSLNQEDFFQRVPRGEILWSHLPLLRKY"
  abundance fitness: -0.904
- SEQUENCE_CODE: "GYRKEQERLGIPYDPIQWSTDQVLHWVVWVMKEFSMTDIDLTTCNISGRELCSLNQEDFFQRVPRGEILWSHLELLRKY"
  abundance fitness: -0.282
- SEQUENCE_CODE: "GYRKEQERLGIPYDPIQWSTDQVLHWVVWVMKEFSMTDIDLTTLNISGRELCSLNQEDFFQRVPRGEILWSHLETLRKY"
  abundance fitness: 0.024
- SEQUENCE_CODE: "GYRKEQERLGIPYQPIQWSTDQVLHWVVWVMKEFSMTDIDLTTLNISGRELCSLNQEDFFQRVPRGEILWSHLELLRKY"
  abundance fitness: -0.344
- SEQUENCE_CODE: "GYRKEQERLGIPYDPIQWSTDQVLHWVVWVMKEFSMTDIDLTTLNISGRELCSLNQEDFFQRVPRGEILWSHLELCRKY"
  abundance fitness: -0.119
- SEQUENCE_CODE: "GYRKEQERLGIPYDPIQWSTDQVLHWVVWVMKEFSMTDIDLTTLNISGRELCSLNQECFFQRVPRGEILWSHLELLRKY"
  abundance fitness: -0.177
- SEQUENCE_CODE: "GYRKEQERLGIPYDPIQWSTDQVLHWVVWVPKEFSMTDIDLTTLNISGRELCSLNQEDFFQRVPRGEILWSHLELLRKY"
  abundance fitness: -1.01
- SEQUENCE_CODE: "GYRKEQQRLGIPYDPIQWSTDQVLHWVVWVMKEFSMTDIDLTTLNISGRELCSLNQEDFFQRVPRGEILWSHLELLRKY"
  abundance fitness: -0.072
- SEQUENCE_CODE: "GYRKEQERLGIPYDPIQWSTDQVLHWVVWVMKEFSMTDIDLTTLNISGRELCSLNQEDFFQRVPRGEILWSHNELLRKY"
  abundance fitness: -0.979
- SEQUENCE_CODE: "GYRKNQERLGIPYDPIQWSTDQVLHWVVWVMKEFSMTDIDLTTLNISGRELCSLNQEDFFQRVPRGEILWSHLELLRKY"
  abundance fitness: -0.897
